Target: T1, HE4-GST (human, UniProt Q14508 31-124)
T1 sequence: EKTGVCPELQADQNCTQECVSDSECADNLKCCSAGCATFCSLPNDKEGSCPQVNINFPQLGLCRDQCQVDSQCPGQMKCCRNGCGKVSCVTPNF
Assay: fluorescence anisotropy; TGK: 25 mM Tris, 192 mM glycine, 5 mM KH2PO4, pH 8.3, 25 C, no divalent cations; APCE 10 nM DNA, 1 mg/mL BSA; anisotropy 0.1 mg/mL BSA, HE4-GST 0-750 nM
Conditions: protein: commercial; tags: GST; label: 5' FAM (APCE); 5' TEX615 (anisotropy)
# Kd listing for each entry below

binder: CAGTGCGTGCTTATTGGCGTAGCGTC (ssDNA) [B10]
Kd [nM]: 280
--
binder: CACAGTGCGTCACATTTAGGGCATT (ssDNA) [A3]
Kd [nM]: 9100
--
binder: TTATCGTACGACAGTCATCCTACAC (ssDNA) [A1]
Kd [nM]: 2200
